Entries and their melting point

Below, each entry is followed by its recorded melting point result.
molecule="CN(C)S(=O)(=O)NCC1COc2ccccc2O1 (racemic)" result="76 to 78 °C"
molecule="NS(=O)(=O)NCC1CCc2ccccc2O1 (stereo not shown) [Compound #10, Chroman-2-ylmethylsulfamide]" result="100 to 101 °C"

Alright, here's another molecule for you.
Record summary for NS(=O)(=O)OCC1CCc2ccccc2O1 (stereo not shown) [Compound #11, Chroman-2-ylmethylsulfamate] : reported melting point = 87 to 90 °C

---

The following compounds are shown together with reported melting point values.

The following compounds have reported results that may help.
compound="NS(=O)(=O)NCCC1COc2ccccc2O1 (stereo not shown)" attribute_measured="melting point" result="101 to 103 °C"
compound=NS(=O)(=O)NC[C@H]1COc2cc(Cl)c(Cl)cc2O1 attribute_measured="melting point" result="119 to 121 °C"
compound=NS(=O)(=O)OC[C@H]1COc2cc(Cl)ccc2O1 attribute_measured="melting point" result="113 to 116 °C"

# next compound below
Form field melting point, entry CN(CC1COc2ccccc2O1)S(N)(=O)=O (racemic) : 97 to 98 °C
